# test: Serum T3, free T3 and T4 levels in hypothyroid (thyroidectomized) rats after T3 infusion or bolus injection (radioimmunoassay)
# Assay type: in vivo, rat
# measurement conditions: Sprague-Dawley, rat, serum, subcutaneous, 0.25 μg/d
recorded endpoint: concentration at 3 days (ng/mL)

• N[C@@H](Cc1cc(I)c(Oc2ccc(O)c(I)c2)c(I)c1)C(=O)O = 0.44

###

# test: clinical
# measurement conditions: human, in vivo, metabolic clearance rate (MCR) of T3
recorded endpoint: clearance

* N[C@@H](Cc1cc(I)c(Oc2ccc(O)c(I)c2)c(I)c1)C(=O)O [T3, triiodothyronine] | ~0.217 mL/min/kg
